Cited source for all entries: PubChem BioAssay (NCI)

test system: UACC-257 melanoma; experiment: NCI tumour cell line growth inhibition, 48 h
Each entry below carries its recorded TGI.
observationType: TGI

molecule	endpointValue
CCCS(=O)(=O)Nc1cccc(Nc2ncnc3cc(NC(=O)CCl)ccc23)c1Cl	7.57 µM
CCCCc1n(Cc2ccc3ccccc3n2)cc[n+]1Cc1ccc2ccccc2n1	4.32 µM
CCc1[nH]nc(C(N)=O)c1N=NN(C)C	> 100 µM
CCOP(=O)(Nc1ccc(-c2ccc(N)cc2)cc1)OCC	> 100 µM
N#Cc1ccccc1NC(=O)C(=O)C(C(=O)c1ccncc1)C1OC(=O)c2ccccc21 (stereo not given)	> 100 µM
COc1ccc2c(c1)C(=O)c1c-2c(N2CCN(C(=O)CCNCCNCCN)CC2)nc2ccccc12	9.33 µM
O=c1[nH]nc(CNc2ccc(Cl)cc2Cl)c2ccccc12	92.7 µM
COC(=O)/C(=N\NC(N)=O)C(C#N)c1ccccc1 (stereo not given)	> 100 µM
O=[N+]([O-])c1ccc(N=Nc2c(Cl)cc(O)cc2Cl)cc1	4.49 µM
CC[C@@H]1CSC(/C=C/C2OC3OC(C)(C)OC3C3OC(C)(C)OC23)=N1 (stereo not given in full)	26.4 µM
COc1ccc(/C=C2/SC(=Nc3ccccc3)N(NC(=O)Cc3ccccc3)C2=O)c(OC)c1	> 100 µM
CC12C3CC4C5CC(C(C53)[C@@H]1NCc1ccccc1)C42 (stereo not given in full)	> 100 µM
CC1(C)N=c2cc3c(cc2N1c1ccc(Cl)cc1)=Nc1ccccc1N3c1ccc(Cl)cc1	> 100 µM
CN(CCNC(=O)c1nn(-c2ccc(Cl)cc2Cl)c2c1Cc1ccccc1-2)CCNC(=O)c1nn(-c2ccc(Cl)cc2Cl)c2c1Cc1ccccc1-2	4.72 µM
Cc1c[nH]c(=O)n(Cc2nnc(CCC(=O)c3nc4ccccc4[nH]3)o2)c1=O	> 100 µM
Cc1cn(C2CC(N=[N+]=[N-])C(CO)O2)c(=O)n(CCCCBr)c1=O (stereo not given)	> 100 µM
C1=CC=C2NCCc3cccc(c3)CCNC3=CC=CC=CC3=NCCCCCCN=C2C=C1	41.8 µM
Cc1ccc2[nH]c(C(=O)NN3C(=O)C(C)SC34CCC(C)CC4)c(-c3ccccc3)c2c1 (stereo not given)	44.5 µM
C/C=C\C(CC(=O)NCCC1CN(C(=O)OCc2ccccc2)c2ccccc21)CC(=O)OC (stereo not given)	> 100 µM
COc1ccc(-c2cc(=O)c3cc(C)c(C)c(C(=O)O)c3o2)cc1	> 100 µM
CC[C@]1(Cc2ccc(OC)c(OC)c2)C2CC(C(=O)OC)ON2O[C@H](OCc2ccccc2)[C@@H]1OC(C)=O (stereo not given in full)	> 100 µM
Cc1ccc(-c2nc(/C=N/Nc3cc(C)nc4ccc(Br)cc34)c(C)o2)cc1	5.02 µM
CC[O-].CC[O-].O=C([CH-]C(=O)c1ccccc1)CCCCCCC(=O)[CH-]C(=O)c1ccccc1.[Ti+4]	> 100 µM
COC(=O)[C@@H]1C[C@]2(Br)c3ccccc3N(S(=O)(=O)c3ccccc3)[C@@H]2N1C(=O)OC	14.6 µM
Brc1ccc(C=NC23CC4CC(CC(C4)C2)C3)cc1	> 100 µM
O=C(c1ccccc1)C1OC1C(=O)c1ccccc1 (stereo not given)	29.6 µM
Cc1cccc(N=Cc2ccc(N(CCC#N)S(=O)(=O)c3ccccc3)cc2C)c1	> 100 µM
O=C1CCC2(CC1CCS(=O)c1ccccc1)OCCO2 (stereo not given)	> 100 µM
COC(=O)CCC(=O)c1ccc2c(c1)CC1(C2)Cc2ccc(C(=O)CCC(=O)OC)cc2C1	> 100 µM
O=C(O[C@H]1[C@@H]2C=CO[C@@H](OC3OC(CO)C(O)C(O)C3O)[C@@H]2[C@@]2(CO)O[C@@H]12)c1ccc(O)c(O)c1 (stereo not given in full)	> 100 µM
[C-]#[N+]C(=C\c1ccc(O)cc1)/C(=C/c1ccc(O)cc1)[N+]#[C-]	6.98 µM
N#Cc1sc2c(c1OC(=O)c1ccc(Cl)cc1Cl)c(=O)n(-c1ccccc1)c(=S)n2-c1ccccc1	> 100 µM
C1C[OH+]CCNCC[OH+]CC[OH+]CCN1.N.[Cl-].[Pt+4]	> 100 µM
COCN1C(=N)C(C(=O)OC(C)(C)C)=C2C=C(O)C=CC21C (stereo not given)	22.5 µM
CC(=O)NCc1c(C(N)=O)ncn1Cc1ccccc1	> 100 µM
COc1ccc(C(=O)c2nc3ccccc3nc2N2CCN(c3ccccc3)CC2)cc1OC	> 100 µM
CCOC(=O)C(NC(=O)c1ccccc1)(c1ccc(S(=O)(=O)Nc2onc(C)c2C)cc1)C(F)(F)F (stereo not given)	> 100 µM
O=C1c2ccccc2C(=O)c2c1oc1c2c(=O)[nH]c2ccc(Cl)cc21	3.36 µM
CN(/N=C/c1ccccc1O)c1ccc2ccccc2n1	> 100 µM
Cc1cc(=O)oc2cc3oc(N(C)c4ccccc4)nc(=O)c3cc12	> 100 µM
